Attribute: pEC50
tested on: T-47D cells; test: Caspase cascade activation / induction of apoptosis in T-47D cells (fluorogenic N-(Ac-DEVD)-N'-ethoxycarbonyl-R110 substrate); format: cell-based, human; conditions: Homo sapiens, T47D; T-47D, 24 hr; read-out: T-47D (24 hr) EC50
pEC50: −log10 of the molar value.
observed_property: pEC50

* Cc1nc(N(C)c2ccc(O)cc2)c2ccccc2n1 | 7.19
* COc1ccc(N(c2nc(Cl)nc3ccccc23)C2CCCCC2)cc1 | 5.53
* COc1ccc(N(C)c2nc(NC/C=C(\C)CCC=C(C)C)nc3ccccc23)cc1 | 6.59
